- protocol: Solubility of Form A in physiologically relevant media (37° C.)
- Format: physicochemical
- cond: thermodynamic from solid, FaSSIF, final measured pH 6.48
experimental.readout: solubility
Express the reported value numerically, then name its unit.

Can you share its solubility? I mean this molecule: C[C@@H]1CN(Cc2cccc(OC(F)(F)F)c2)CCN1C(=O)Oc1cncc(C(N)=O)c1 [Form A]
146 µg/mL

====

- protocol: Visual solubility assessment of Form B at room temperature
- Type: physicochemical
- cond: organic solvent or mixture, thermodynamic from solid; H2O/MeCN 1/3 (v/v) Aw~0.9, room temperature
experimental.readout: solubility at 3 min

Bench note: what solubility at 3 min did C[C@@H]1CN(Cc2cccc(OC(F)(F)F)c2)CCN1C(=O)Oc1cncc(C(N)=O)c1 [Form B] show?
> 730 mg/mL
